Target system: human ρ1 GABAA receptor (Homo sapiens)
Construct: gene GABRR1; ρ1-EM (flexible N-terminal region and intracellular M3-M4 loop deleted), homopentamer in saposin nanodiscs
Sequence (P24046 22-479): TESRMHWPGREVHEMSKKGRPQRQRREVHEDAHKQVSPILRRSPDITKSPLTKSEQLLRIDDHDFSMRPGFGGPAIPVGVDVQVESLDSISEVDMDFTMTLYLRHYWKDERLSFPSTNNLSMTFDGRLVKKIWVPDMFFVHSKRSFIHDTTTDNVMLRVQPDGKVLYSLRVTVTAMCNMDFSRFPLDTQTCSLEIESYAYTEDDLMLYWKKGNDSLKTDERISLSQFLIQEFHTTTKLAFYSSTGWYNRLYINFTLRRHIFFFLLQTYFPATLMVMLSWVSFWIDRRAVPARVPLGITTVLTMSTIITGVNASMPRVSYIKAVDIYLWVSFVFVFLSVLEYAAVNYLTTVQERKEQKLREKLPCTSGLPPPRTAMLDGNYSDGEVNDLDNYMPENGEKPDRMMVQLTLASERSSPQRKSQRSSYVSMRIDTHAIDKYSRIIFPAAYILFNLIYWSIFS
Method notes: cryo-EM structure ([…] Å); TEVC inhibition in Xenopus oocytes; F283Y/F284Y ablates inhibition
Type: cell-based
Readout type: IC50

Exercise: // fetch human ρ1 GABAA receptor (Homo sapiens) IC50 for C[C@]12CC[C@@H]3c4ccc(O)cc4CC[C@H]3[C@@H]1CC[C@@H]2O [E2, β-estradiol]
Key: ~30 µM
